Tested on: staining fungi (macerated fungal blend)
Test: Staining fungi coverage in inoculated stem wound of red oak seedlings, greenhouse (Table 6)
Settings: fungicide + buffered amine oxide, Buffer System 3, amine oxide 12, 200:1; PPM: Thiabendazole/Fludioxonil/Azoxystrobin 160, Chlorothalonil 1235, Propiconazole 105, Mancozeb 1097, Vinclozolin 122, Mefenoxam 20
parameter: Percent of Staining Fungi Coverage Average (%) in Stem Wound of Red Oak Seedlings (Day 28)
One number for each entry, in %.

# batch size: 3; output Percent of Staining Fungi Coverage Average (%) in Stem Wound of Red Oak Seedlings (Day 28) per entry
1. CCCC1COC(Cn2cncn2)(c2ccc(Cl)cc2Cl)O1 (stereo not shown)
2. N#Cc1c(Cl)c(Cl)c(Cl)c(C#N)c1Cl
3. C=CC1(C)OC(=O)N(c2cc(Cl)cc(Cl)c2)C1=O (stereo not shown)

[A]
20
27
17

[Q] Percent of Staining Fungi Coverage Average (%) in Stem Wound of Red Oak Seedlings (Day 28) lookup needed for "COCC(=O)N(c1c(C)cccc1C)[C@H](C)C(=O)OC" , thanks.
[A] 16
